- System Under Test: human p38 kinase alpha (Homo sapiens)
- Construct: The coding region of the human p38α cDNA was obtained by PCR-amplification from RNA isolated from the human monocyte cell line THP.1; made in house; host or cells: E. coli DH10B
- Test: In vitro p38 kinase inhibition analysis (PHAS-I 32P-ATP or EGFRP 33P-ATP format)
- Format: biochemical
- Condition Summary: Table 1; compounds of Examples 1-28; one of two in vitro assay methods; Phosphate Dihydrate; read-out: p38α Kinase Inhibition (IC50 in μM)
Endpoint Name: IC50 (µM)

INSERT INTO assay_data (compound, result) VALUES
  ('O=C(COP(=O)(O)O)N1CCC(c2[nH]nc(-c3ccc(Cl)cc3)c2-c2ccncn2)CC1 [Example 24, Phosphate Dihydrate]', 0.0608),
  ('O=C(COP(=O)(O)O)N1CCC(c2[nH]nc(-c3ccc(Cl)cc3)c2-c2ccncn2)CC1 [Example 23, Phosphate Dihydrate]', 0.0681);

----------
- System Under Test: human p38 kinase alpha (Homo sapiens, UniProt Q16539)
- Construct: The coding region of the human p38α cDNA was obtained by PCR-amplification from RNA isolated from the human monocyte cell line THP.1; made in house; host or cells: E. coli DH10B
- Sequence (Q16539 whole entry): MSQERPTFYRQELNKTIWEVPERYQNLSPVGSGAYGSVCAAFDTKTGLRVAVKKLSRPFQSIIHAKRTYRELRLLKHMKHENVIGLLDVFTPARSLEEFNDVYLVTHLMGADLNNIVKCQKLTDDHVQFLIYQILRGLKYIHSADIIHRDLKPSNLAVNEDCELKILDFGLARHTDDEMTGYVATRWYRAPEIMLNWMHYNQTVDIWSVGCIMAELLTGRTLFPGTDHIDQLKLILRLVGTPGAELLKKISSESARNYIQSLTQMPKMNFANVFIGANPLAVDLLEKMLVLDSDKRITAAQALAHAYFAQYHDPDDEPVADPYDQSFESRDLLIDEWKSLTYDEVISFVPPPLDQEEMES
- Test: In vitro p38 kinase inhibition analysis (PHAS-I 32P-ATP or EGFRP 33P-ATP format)
- Format: biochemical
- Condition Summary: Table 2; additional pyrazole compounds, Examples 56-169; read-out: p38α Kinase Inhibition (IC50 in μM)
Measured IC50, listed per entry for reference.
Endpoint Name: IC50 (µM)

INSERT INTO assay_data (compound_structure, result) VALUES
  ('CN(C)CCNc1nccc(-c2c(-c3ccc(F)c(C(F)(F)F)c3)n[nH]c2C2CCN(C(=O)CO)CC2)n1', 0.814),
  ('O=C(CO)N1CCC(c2[nH]nc(-c3ccc(Cl)cc3)c2-c2ccnc(O[C@H]3CCOC3)n2)CC1', 0.14),
  ('CC(C)(C)OC(=O)N1CCC(c2[nH]nc(-c3ccc(Cl)cc3)c2-c2ccnc(Oc3ccccc3C#N)n2)CC1', 0.848),
  ('O=C(CO)N1CCC(c2[nH]nc(-c3cc(F)cc(F)c3)c2-c2ccncn2)CC1', 6.2);

----------
Measured IC50, listed per entry for reference.
- System Under Test: human p38 kinase alpha (Homo sapiens, UniProt Q16539)
- Construct: The coding region of the human p38α cDNA was obtained by PCR-amplification from RNA isolated from the human monocyte cell line THP.1; made in house; host or cells: E. coli DH10B
- Test: In vitro p38 kinase inhibition analysis (PHAS-I 32P-ATP or EGFRP 33P-ATP format)
- Type: biochemical
- Condition Summary: Table 2; additional pyrazole compounds, Examples 56-169; read-out: p38α Kinase Inhibition (IC50 in μM)
Endpoint Name: IC50 (µM)

INSERT INTO assay_data (compound_structure, endpoint_name, result) VALUES
  ('O=C(CO)N1CCC(c2[nH]nc(-c3ccc(Cl)cc3)c2-c2ccnc(O)n2)CC1', 'IC50', 15.8),
  ('C[C@@H](N[C@H]1CC[C@@H](c2[nH]nc(-c3ccc(Cl)cc3)c2-c2ccncn2)CC1)c1ccccc1', 'IC50', 0.0449),
  ('CC(C)(C)OC(=O)N1CCC(c2[nH]nc(-c3ccc(Cl)cc3)c2-c2ccnc(Oc3cccc(C#N)c3)n2)CC1', 'IC50', 1.59),
  ('Fc1cc(Cl)ccc1-c1n[nH]c(C2CCNCC2)c1-c1ccnc(NC2CCCC2)n1', 'IC50', 0.0159),
  ('C[C@H](O)C(=O)N1CCC(c2[nH]nc(-c3cc(F)cc(Cl)c3)c2-c2ccncn2)CC1', 'IC50', 1.62),
  ('C[C@@H](N[C@H]1CC[C@@H](c2[nH]nc(-c3ccc(Cl)cc3)c2-c2ccncn2)CC1)c1ccc(F)cc1', 'IC50', 0.13),
  ('CN(C)CCOc1nccc(-c2c(-c3cccc(Cl)c3)n[nH]c2C2CCN(C(=O)CO)CC2)n1', 'IC50', 0.727),
  ('CC(C)CCNc1nccc(-c2c(-c3ccc(Cl)cc3)n[nH]c2C2CCN(C(=O)CO)CC2)n1', 'IC50', 0.859),
  ('CN(C)CCNc1nccc(-c2c(-c3ccc(Cl)cc3)n[nH]c2C2CCN(C(=O)OC(C)(C)C)CC2)n1', 'IC50', 3.64),
  ('FC(F)(F)c1cc(-c2n[nH]c(C3CCNCC3)c2-c2ccnc(NC3CCCC3)n2)ccc1NC1CCCC1', 'IC50', 0.424),
  ('C[C@H](N[C@H]1CC[C@H](c2[nH]nc(-c3ccc(Cl)cc3)c2-c2ccncn2)CC1)c1ccc(F)cc1', 'IC50', 0.00576),
  ('CC(C)(C)OC(=O)N1CCC(c2[nH]nc(-c3ccc(Cl)cc3)c2-c2ccnc(Oc3ccc(C#N)cc3)n2)CC1', 'IC50', 1.5),
  ('C[C@@H](O)C(=O)N1CCC(c2[nH]nc(-c3ccc(Cl)cc3F)c2-c2ccncn2)CC1', 'IC50', 0.207),
  ('CN(C)CCNc1nccc(-c2c(-c3ccc(Cl)cc3)n[nH]c2C2CCNCC2)n1', 'IC50', 0.159),
  ('O=C(CO)N1CCC(c2[nH]nc(-c3ccc(Cl)c(Cl)c3)c2-c2ccncn2)CC1', 'IC50', 0.133);

----------
- System Under Test: human p38 kinase alpha (Homo sapiens)
- Construct: The coding region of the human p38α cDNA was obtained by PCR-amplification from RNA isolated from the human monocyte cell line THP.1; made in house; host or cells: E. coli DH10B
- Test: In vitro p38 kinase inhibition analysis (PHAS-I 32P-ATP or EGFRP 33P-ATP format)
- Format: biochemical
- Condition Summary: Table 2; additional pyrazole compounds, Examples 56-169; read-out: p38α Kinase Inhibition (IC50 in μM)
Measured log10 IC50, listed per entry for reference.
Endpoint Name: log10 IC50 (log10 of the value in µM)

INSERT INTO results (molecule, system_under_test, endpoint_name, result) VALUES
  ('CN(C)CCOc1nccc(-c2c(-c3ccc(F)c(C(F)(F)F)c3)n[nH]c2C2CCN(C(=O)CO)CC2)n1', 'human p38 kinase alpha (Homo sapiens)', 'log10 IC50', -0.07),
  ('O=C(CO)N1CCC(c2[nH]nc(-c3ccc(Cl)cc3O)c2-c2ccncn2)CC1', 'human p38 kinase alpha (Homo sapiens)', 'log10 IC50', 0.12),
  ('O=C(CO)N1CCC(c2[nH]nc(-c3cccc(OC(F)(F)F)c3)c2-c2ccncn2)CC1', 'human p38 kinase alpha (Homo sapiens)', 'log10 IC50', 1.41),
  ('CN1CCC(c2[nH]nc(-c3ccc(F)c(C(F)(F)F)c3)c2-c2ccnc(NC3CCCC3)n2)CC1', 'human p38 kinase alpha (Homo sapiens)', 'log10 IC50', -2.20),
  ('Clc1ccc(-c2n[nH]c(C3CCNCC3)c2-c2ccnc(NC3CCN(Cc4ccccc4)CC3)n2)cc1', 'human p38 kinase alpha (Homo sapiens)', 'log10 IC50', -1.47),
  ('CN(C)CCOc1nccc(-c2c(-c3ccc(F)c(C(F)(F)F)c3)n[nH]c2C2CCNCC2)n1', 'human p38 kinase alpha (Homo sapiens)', 'log10 IC50', -0.28),
  ('O=C(CO)N1CCC(c2[nH]nc(-c3cccc(F)c3F)c2-c2ccncn2)CC1', 'human p38 kinase alpha (Homo sapiens)', 'log10 IC50', 0.39),
  ('CSc1nccc(-c2c(-c3ccc(Cl)cc3)n[nH]c2C2CCN(C(=O)COC(C)=O)CC2)n1', 'human p38 kinase alpha (Homo sapiens)', 'log10 IC50', -0.53),
  ('CS(=O)(=O)N1CCC(c2[nH]nc(-c3ccc(Cl)cc3F)c2-c2ccnc(NC3CCCC3)n2)CC1', 'human p38 kinase alpha (Homo sapiens)', 'log10 IC50', -2.33),
  ('C[C@H](O)C(=O)N1CCC(c2[nH]nc(-c3ccc(Cl)cc3F)c2-c2ccncn2)CC1', 'human p38 kinase alpha (Homo sapiens)', 'log10 IC50', -1.11),
  ('COc1cc(Cl)ccc1-c1n[nH]c(C2CCN(C(=O)CO)CC2)c1-c1ccncn1', 'human p38 kinase alpha (Homo sapiens)', 'log10 IC50', 1.29),
  ('CN1CCC(c2[nH]nc(-c3ccc(Cl)cc3F)c2-c2ccnc(NC3CCCC3)n2)CC1 [Example 153]', 'human p38 kinase alpha (Homo sapiens)', 'log10 IC50', -1.74),
  ('C[C@H](N[C@H]1CC[C@H](c2[nH]nc(-c3ccc(Cl)cc3)c2-c2ccncn2)CC1)c1ccccc1', 'human p38 kinase alpha (Homo sapiens)', 'log10 IC50', -2.07),
  ('O=C(CO)N1CCC(c2[nH]nc(-c3cc(C(F)(F)F)ccc3F)c2-c2ccncn2)CC1', 'human p38 kinase alpha (Homo sapiens)', 'log10 IC50', -0.34),
  ('CC(C)C(N)C(=O)OCC(=O)N1CCC(c2[nH]nc(-c3ccc(Cl)cc3)c2-c2ccncn2)CC1 (stereo not shown) [Example 57]', 'human p38 kinase alpha (Homo sapiens)', 'log10 IC50', -1.55),
  ('O=C(CO)N1CCC(c2[nH]nc(-c3ccc(Cl)cc3F)c2-c2ccnc(NC3CCCC3)n2)CC1', 'human p38 kinase alpha (Homo sapiens)', 'log10 IC50', -1.75),
  ('C[C@H](O)C(=O)N1CCC(c2[nH]nc(-c3cccc(C(F)(F)F)c3F)c2-c2ccncn2)CC1', 'human p38 kinase alpha (Homo sapiens)', 'log10 IC50', 0.71),
  ('CN(C)CCOc1nccc(-c2c(-c3cccc(Cl)c3)n[nH]c2C2CCN(C(=O)OC(C)(C)C)CC2)n1', 'human p38 kinase alpha (Homo sapiens)', 'log10 IC50', 0.97),
  ('C[C@H](O)C(=O)N1CCC(c2[nH]nc(-c3cc(F)cc(C(F)(F)F)c3)c2-c2ccncn2)CC1', 'human p38 kinase alpha (Homo sapiens)', 'log10 IC50', 0.93),
  ('CCc1ccc(-c2n[nH]c(C3CCN(C(=O)CO)CC3)c2-c2ccncn2)cc1', 'human p38 kinase alpha (Homo sapiens)', 'log10 IC50', 0.77),
  ('CC(C)C(N)C(=O)OCC(=O)N1CCC(c2[nH]nc(-c3ccc(Cl)cc3)c2-c2ccncn2)CC1 (stereo not shown) [Example 56]', 'human p38 kinase alpha (Homo sapiens)', 'log10 IC50', -1.40),
  ('Cc1ccc(-c2n[nH]c(C3CCN(C(=O)CO)CC3)c2-c2ccncn2)cc1Cl', 'human p38 kinase alpha (Homo sapiens)', 'log10 IC50', -0.35),
  ('O=C(CO)N1CCC(c2[nH]nc(-c3c(F)cccc3F)c2-c2ccncn2)CC1', 'human p38 kinase alpha (Homo sapiens)', 'log10 IC50', 0.68),
  ('O=C(CO)N1CCC(c2[nH]nc(-c3cc(F)cc(C(F)(F)F)c3)c2-c2ccncn2)CC1', 'human p38 kinase alpha (Homo sapiens)', 'log10 IC50', 0.43),
  ('COc1cc(-c2n[nH]c(C3CCN(C(=O)CO)CC3)c2-c2ccncn2)ccc1Cl', 'human p38 kinase alpha (Homo sapiens)', 'log10 IC50', 0.66),
  ('C[C@H](O)C(=O)N1CCC(c2[nH]nc(-c3cc(C(F)(F)F)ccc3F)c2-c2ccncn2)CC1', 'human p38 kinase alpha (Homo sapiens)', 'log10 IC50', -0.36),
  ('Cc1c(Cl)cccc1-c1n[nH]c(C2CCN(C(=O)CO)CC2)c1-c1ccncn1', 'human p38 kinase alpha (Homo sapiens)', 'log10 IC50', -0.01),
  ('CN1CCC(c2[nH]nc(-c3ccc(Cl)cc3)c2-c2ccnc(NC3CCCC3)n2)CC1', 'human p38 kinase alpha (Homo sapiens)', 'log10 IC50', -1.83),
  ('O=C(CO)N1CCC(c2[nH]nc(-c3cccc(Cl)c3F)c2-c2ccncn2)CC1', 'human p38 kinase alpha (Homo sapiens)', 'log10 IC50', -0.53),
  ('C[C@@H](O)C(=O)N1CCC(c2[nH]nc(-c3cccc(Cl)c3F)c2-c2ccncn2)CC1', 'human p38 kinase alpha (Homo sapiens)', 'log10 IC50', -0.39),
  ('O=C(CO)N1CCC(c2[nH]nc(-c3cc(F)ccc3F)c2-c2ccncn2)CC1', 'human p38 kinase alpha (Homo sapiens)', 'log10 IC50', 0.24);
